System: MS2 coat protein
method.notes: apparent KD of MS2 coat protein; higher = weaker reporter binding
experimental.parameters: Eterna round: R101; input ligand: none

[
  {
    "sequence.string": "CGGGAUAUGAAGGGCGAAAGCCCACAUGAGGAUCACCCAUGUAGAAGGCGGGCCGCAACGCGGCCCGAGGAUAUACAAUAUCCA [#my 7th design] (puzzle (switch architecture): Inverted Exclusion NG 3)",
    "apparent KD of MS2 coat protein [nM]": 9.05
  },
  {
    "sequence.string": "AAAUAACUUGAAGGAUAUCAGGGUGCACCUCAGUAAAACUGAGGUGCACCCUGAGAAGGUCGAGGAUCACCCGACCUAAAUAAA [#SharedSequence SLExNG1: 6-2] (puzzle (switch architecture): Small Loop Exclusion NG 1)",
    "apparent KD of MS2 coat protein [nM]": 5.76
  },
  {
    "sequence.string": "CGUAGUCCGUAGAAGGGUGACAUGAGGAUCACCCAUGUGCGAGCGGAGGGAGUCAGCGGCUCGCCACAGGAUAUACGGAGCACG [Eniszabe] (puzzle (switch architecture): Inverted Same State NG 2)",
    "apparent KD of MS2 coat protein [nM]": 137
  },
  {
    "sequence.string": "UUACUCAUGUAAGGAUAUGCAGCCGAAACGGCUGCAGAAGGUACUAUAAUACAUGAGGAUCACCCAUGUAAAAUAUAUAAAGUU (puzzle (switch architecture): Same State NG 1)",
    "apparent KD of MS2 coat protein [nM]": 29.3
  }
]
